// values below are reported inhibition at 10 µM
Test system: RXF 393
Test: NCI 60 antitumor screening (single dose / five doses)
Assay type: cell-based
Conditions: Homo sapiens; RXF 393 (renal cancer), single dose 10 μM; read-out: Growth inhibition percentage (GI %)
Response body: numeric value in %, unit text excluded.

Worked set:
Oc1ccccc1/C=N/Nc1nc(N/N=C/c2ccccc2O)nc(N2CCOCC2)n1 [compound 6a] : 101
CN(C)c1ccc(/C=N/Nc2nc(N/N=C/c3ccc(N(C)C)cc3)nc(N3CCCCC3)n2)cc1 [compound 7g] : 6.71

I have this compound here, O=C(NNc1nc(NNC(=O)c2ccccc2)nc(N2CCOCC2)n1)c1ccccc1 [compound 8d] , and I need its recorded inhibition at 10 µM.
0.99

Continue with Oc1ccc(/C=N/Nc2nc(N/N=C/c3ccc(O)c(O)c3)nc(N3CCCCC3)n2)cc1O [compound 7j]
-17.8

Continue with Brc1ccccc1/C=N/Nc1nc(N/N=C/c2ccccc2Br)nc(N2CCOCC2)n1 [compound 6b]
30.4

###

System: SK-MEL-5
Assay: NCI 60 antitumor screening (single dose / five doses)
Assay type: cell-based
Details: Homo sapiens; SK-MEL-5 (melanoma), single dose 10 μM; read-out: Growth inhibition percentage (GI %)
Tag: YES if measured inhibition at 10 µM is not below 20%, NO if it is.

// below: answered compounds
Brc1ccccc1/C=N/Nc1nc(N/N=C/c2ccccc2Br)nc(N2CCCCC2)n1 : NO
Fc1cccc(Cl)c1/C=N/Nc1nc(N/N=C/c2c(F)cccc2Cl)nc(N2CCCCC2)n1 : YES
Clc1cccc(/C=N/Nc2nc(N/N=C/c3cccc(Cl)c3Cl)nc(N3CCCCC3)n2)c1Cl : NO

Would you say Brc1ccccc1/C=N/Nc1nc(N/N=C/c2ccccc2Br)nc(N2CCOCC2)n1 shows inhibition at 10 µM at minimum 20%?
YES

Continue with Clc1cccc(/C=N/Nc2nc(N/N=C/c3cccc(Cl)c3Cl)nc(N3CCOCC3)n2)c1Cl
NO

Continue with COC(=O)C(Cc1ccccc1)Nc1nc(NC(Cc2ccccc2)C(=O)OC)nc(N2CCOCC2)n1 (stereo not shown)
NO

Continue with Oc1ccccc1/C=N/Nc1nc(N/N=C/c2ccccc2O)nc(N2CCCCC2)n1
YES

###

Tested on: K-562
Test: NCI 60 antitumor screening (single dose / five doses)
Type: cell-based
Conditions: Homo sapiens, K562; K-562 (leukaemia), single dose 10 μM; read-out: Growth inhibition percentage (GI %)
// values below are reported inhibition at 10 µM
Response body: numeric value in %, unit text excluded.

Worked set:
Clc1cccc(/C=N/Nc2nc(N/N=C/c3cccc(Cl)c3Cl)nc(N3CCCCC3)n2)c1Cl : 21.9
Oc1ccc(/C=N/Nc2nc(N/N=C/c3ccc(O)c(O)c3)nc(N3CCCCC3)n2)cc1O : 6.41
Oc1ccccc1/C=N/Nc1nc(N/N=C/c2ccccc2O)nc(N2CCCCC2)n1 : 61.8

Can you look up inhibition at 10 µM on K-562 for Brc1cccc(/C=N/Nc2nc(N/N=C/c3cccc(Br)c3)nc(N3CCOCC3)n2)c1 ?
85.5

Continue with Clc1cccc(/C=N/Nc2nc(N/N=C/c3cccc(Cl)c3)nc(N3CCCCC3)n2)c1
17

Continue with Fc1cccc(/C=N/Nc2nc(N/N=C/c3cccc(F)c3)nc(N3CCCCC3)n2)c1
38.6

Continue with Clc1cccc(/C=N/Nc2nc(N/N=C/c3cccc(Cl)c3)nc(N3CCOCC3)n2)c1
88.2

Continue with Oc1ccccc1/C=N/Nc1nc(N/N=C/c2ccccc2O)nc(N2CCOCC2)n1
74.6

Continue with Brc1ccccc1/C=N/Nc1nc(N/N=C/c2ccccc2Br)nc(N2CCOCC2)n1
5.94

Continue with Fc1cccc(Cl)c1/C=N/Nc1nc(N/N=C/c2c(F)cccc2Cl)nc(N2CCCCC2)n1
67.7

Continue with CN(C)c1ccc(/C=N/Nc2nc(N/N=C/c3ccc(N(C)C)cc3)nc(N3CCCCC3)n2)cc1
96.9

Continue with CN(C)c1ccc(/C=N/Nc2nc(N/N=C/c3ccc(N(C)C)cc3)nc(N3CCOCC3)n2)cc1
93.7

Continue with Brc1cccc(/C=N/Nc2nc(N/N=C/c3cccc(Br)c3)nc(N3CCCCC3)n2)c1
11.2

Continue with Fc1cccc(/C=N/Nc2nc(N/N=C/c3cccc(F)c3)nc(N3CCOCC3)n2)c1
35.3

Continue with Fc1cccc(Cl)c1/C=N/Nc1nc(N/N=C/c2c(F)cccc2Cl)nc(N2CCOCC2)n1
43

Continue with O=C(NNc1nc(NNC(=O)c2ccccc2)nc(N2CCOCC2)n1)c1ccccc1
-6.16
